Target: UniProt P09874
Experiment: PARP1 probe displacement HTRF assay
Conditions: read-out: PARP1 HTRF; binned Kd, PARP1 probe displacement HTRF
Recorded Kd for the following compounds

compound="CNC(=O)c1ccc(N2CCC(N3CCC(c4nc5c(C)nn(C)c5c(=O)[nH]4)C3)CC2)cn1 (racemic)" endpointvalue="< 10 nM"
compound="CNC(=O)c1ccc(N2CCC(N3CCCC(c4nc5cc(F)ccc5c(=O)[nH]4)C3)CC2)cn1 (single isomer, unassigned) [Compound 108a]" endpointvalue="100 to 1000 nM"
compound="O=C(NCCF)c1ccc(N2CCC(N3CCC(c4nc5ccccc5c(=O)[nH]4)C3)CC2)cn1 (single isomer, unassigned) [Compound 117a]" endpointvalue="10 to 100 nM"
compound="CNC(=O)c1ccc(N2CCC(N3CCC(c4cc5nccc(N)c5c(=O)[nH]4)C3)CC2)cn1 (racemic)" endpointvalue="10 to 100 nM"
compound="CNC(=O)c1ccc(N2CCC(N3CCC(c4nc5ccc(F)cc5c(=O)[nH]4)C3)CC2)cn1 (single isomer, unassigned) [Compound 64a]" endpointvalue="< 10 nM"

Report measured Kd; entry is CNC(=O)c1ccc(N2CCC(N3CCCC(c4nc5cccnc5c(=O)[nH]4)C3)CC2)cn1 (single isomer, unassigned) [Compound 89b]
100 to 1000 nM

---

Biological target: PARP2 (Homo sapiens, UniProt Q9UGN5)
Sequence (Q9UGN5 whole entry): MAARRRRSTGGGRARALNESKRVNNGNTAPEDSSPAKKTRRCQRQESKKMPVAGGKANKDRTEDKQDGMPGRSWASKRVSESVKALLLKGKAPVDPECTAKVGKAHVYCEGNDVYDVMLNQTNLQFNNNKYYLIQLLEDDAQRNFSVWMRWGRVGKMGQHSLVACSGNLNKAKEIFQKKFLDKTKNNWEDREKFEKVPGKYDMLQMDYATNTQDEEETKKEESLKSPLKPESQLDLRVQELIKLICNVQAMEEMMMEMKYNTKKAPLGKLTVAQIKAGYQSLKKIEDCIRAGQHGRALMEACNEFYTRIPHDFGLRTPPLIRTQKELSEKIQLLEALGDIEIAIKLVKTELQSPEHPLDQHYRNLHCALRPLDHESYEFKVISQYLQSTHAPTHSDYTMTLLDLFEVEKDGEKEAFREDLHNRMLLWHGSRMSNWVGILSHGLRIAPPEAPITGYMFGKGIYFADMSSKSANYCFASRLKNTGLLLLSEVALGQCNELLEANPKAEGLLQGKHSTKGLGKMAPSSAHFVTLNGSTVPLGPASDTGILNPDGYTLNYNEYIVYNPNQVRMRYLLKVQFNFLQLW
Experiment: NanoBRET cellular target occupancy assay, PARP2
Conditions: HEK293 cells transiently transfected with PARP2-NanoLuc fusion; tracer 2 nM; 2 hours at 37° C.; Kd by Cheng-Prussoff
pKd: −log10 of the molar value.
Recorded pKd for the following compounds

Worked cases, answers included:
compound=CNC(=O)c1ccc(N2CCC(N3CC4(c5nc6ccccc6c(=O)[nH]5)CC3C4)CC2)c(F)n1 property=pKd endpointvalue="< 5.00"
compound="O=C(NC1CC1)c1ccc(N2CCC(N3CCC(c4cc5cccc(F)c5c(=O)[nH]4)C3)CC2)cn1 (single isomer, unassigned) [Compound 339a]" property=pKd endpointvalue="7.00 to 8.00"
compound="CNC(=O)c1ccc(N2CCC(N3CCC(c4cc5c(c(=O)[nH]4)CCCC5)C3)CC2)c(F)n1 (single isomer, unassigned) [Compound 337b]" property=pKd endpointvalue="6.00 to 7.00"
compound="N#Cc1ccc(N2CCC(N3CCC(c4cc5cccc(F)c5c(=O)[nH]4)C3)CC2)cn1 (single isomer, unassigned) [Compound 316a]" property=pKd endpointvalue="6.00 to 7.00"
compound="CNC(=O)c1ccc(N2CCC(N3CCC(c4cc5ccc(F)cc5c(=O)[nH]4)C3)CC2)cn1 (single isomer, unassigned) [Compound 154b]" property=pKd endpointvalue="6.00 to 7.00"

Consider now this further compound.
Report measured pKd; entry is CNC(=O)c1ccc(N2CCC(N3CCC(c4cc5cccc(F)c5c(=O)[nH]4)C3)CC2)c(F)n1 (single isomer, unassigned) [Compound 184b]
6.00 to 7.00

---

Target: full length N-terminally FLAG-tagged PARP1 (Homo sapiens)
Sequence (P09874 whole entry): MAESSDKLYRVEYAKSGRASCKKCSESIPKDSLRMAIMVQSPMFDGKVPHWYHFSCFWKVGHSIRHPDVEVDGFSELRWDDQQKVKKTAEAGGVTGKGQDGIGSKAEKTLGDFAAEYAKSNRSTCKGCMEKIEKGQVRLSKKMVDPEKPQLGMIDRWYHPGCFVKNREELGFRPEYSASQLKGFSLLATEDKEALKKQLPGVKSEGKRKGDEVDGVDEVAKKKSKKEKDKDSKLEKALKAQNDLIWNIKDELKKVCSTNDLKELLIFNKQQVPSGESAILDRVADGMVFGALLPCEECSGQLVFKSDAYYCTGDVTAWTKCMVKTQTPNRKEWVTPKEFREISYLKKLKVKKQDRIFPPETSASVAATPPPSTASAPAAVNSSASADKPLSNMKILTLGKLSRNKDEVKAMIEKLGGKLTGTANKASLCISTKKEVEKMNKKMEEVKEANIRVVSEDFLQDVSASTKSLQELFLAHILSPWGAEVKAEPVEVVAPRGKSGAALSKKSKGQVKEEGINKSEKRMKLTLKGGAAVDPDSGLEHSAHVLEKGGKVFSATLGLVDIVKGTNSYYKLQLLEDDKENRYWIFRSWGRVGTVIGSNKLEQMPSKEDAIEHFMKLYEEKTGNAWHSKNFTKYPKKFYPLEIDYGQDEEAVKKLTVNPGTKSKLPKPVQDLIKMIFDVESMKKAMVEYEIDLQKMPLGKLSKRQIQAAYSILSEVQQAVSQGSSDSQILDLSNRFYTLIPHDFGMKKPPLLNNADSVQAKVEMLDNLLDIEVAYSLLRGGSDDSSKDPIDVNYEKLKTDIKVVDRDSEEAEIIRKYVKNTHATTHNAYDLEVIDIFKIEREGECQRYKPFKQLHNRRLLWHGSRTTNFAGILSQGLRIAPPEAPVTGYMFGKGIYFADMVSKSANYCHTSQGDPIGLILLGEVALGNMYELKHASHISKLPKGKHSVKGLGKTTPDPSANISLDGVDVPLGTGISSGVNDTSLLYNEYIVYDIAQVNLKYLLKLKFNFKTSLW
Assay: PARP1 probe displacement HTRF assay
Settings: read-out: PARP1 HTRF; binned Kd, PARP1 probe displacement HTRF
Recorded Kd for the following compounds

Report measured Kd; entry is CNC(=O)c1ccc(N2CCC(N3CCCC(c4nc5c(Cl)cccc5c(=O)[nH]4)C3)CC2)cn1 (single isomer, unassigned) [Compound 44a]
< 10 nM

Report measured Kd; entry is CNC(=O)c1ccc(N2CCC(N3CCC(c4nc5onc(C)c5c(=O)[nH]4)C3)CC2)cn1 (single isomer, unassigned) [Compound 149a]
100 to 1000 nM

Report measured Kd; entry is CNC(=O)c1ccc(N2CCC(N3CCC(c4ccc(CC(F)(F)F)c(=O)[nH]4)C3)CC2)cn1 (single isomer, unassigned) [Compound 188b]
< 10 nM
